Overview of reported MFI across a group of binders:
# target_desc: T1, MERS-CoV Spike Protein (ECD, aa 1-1297, His Tag) (Sino 40069-[change]) (MERS-CoV, UniProt K9N5Q8 18-1297)
# T1 sequence: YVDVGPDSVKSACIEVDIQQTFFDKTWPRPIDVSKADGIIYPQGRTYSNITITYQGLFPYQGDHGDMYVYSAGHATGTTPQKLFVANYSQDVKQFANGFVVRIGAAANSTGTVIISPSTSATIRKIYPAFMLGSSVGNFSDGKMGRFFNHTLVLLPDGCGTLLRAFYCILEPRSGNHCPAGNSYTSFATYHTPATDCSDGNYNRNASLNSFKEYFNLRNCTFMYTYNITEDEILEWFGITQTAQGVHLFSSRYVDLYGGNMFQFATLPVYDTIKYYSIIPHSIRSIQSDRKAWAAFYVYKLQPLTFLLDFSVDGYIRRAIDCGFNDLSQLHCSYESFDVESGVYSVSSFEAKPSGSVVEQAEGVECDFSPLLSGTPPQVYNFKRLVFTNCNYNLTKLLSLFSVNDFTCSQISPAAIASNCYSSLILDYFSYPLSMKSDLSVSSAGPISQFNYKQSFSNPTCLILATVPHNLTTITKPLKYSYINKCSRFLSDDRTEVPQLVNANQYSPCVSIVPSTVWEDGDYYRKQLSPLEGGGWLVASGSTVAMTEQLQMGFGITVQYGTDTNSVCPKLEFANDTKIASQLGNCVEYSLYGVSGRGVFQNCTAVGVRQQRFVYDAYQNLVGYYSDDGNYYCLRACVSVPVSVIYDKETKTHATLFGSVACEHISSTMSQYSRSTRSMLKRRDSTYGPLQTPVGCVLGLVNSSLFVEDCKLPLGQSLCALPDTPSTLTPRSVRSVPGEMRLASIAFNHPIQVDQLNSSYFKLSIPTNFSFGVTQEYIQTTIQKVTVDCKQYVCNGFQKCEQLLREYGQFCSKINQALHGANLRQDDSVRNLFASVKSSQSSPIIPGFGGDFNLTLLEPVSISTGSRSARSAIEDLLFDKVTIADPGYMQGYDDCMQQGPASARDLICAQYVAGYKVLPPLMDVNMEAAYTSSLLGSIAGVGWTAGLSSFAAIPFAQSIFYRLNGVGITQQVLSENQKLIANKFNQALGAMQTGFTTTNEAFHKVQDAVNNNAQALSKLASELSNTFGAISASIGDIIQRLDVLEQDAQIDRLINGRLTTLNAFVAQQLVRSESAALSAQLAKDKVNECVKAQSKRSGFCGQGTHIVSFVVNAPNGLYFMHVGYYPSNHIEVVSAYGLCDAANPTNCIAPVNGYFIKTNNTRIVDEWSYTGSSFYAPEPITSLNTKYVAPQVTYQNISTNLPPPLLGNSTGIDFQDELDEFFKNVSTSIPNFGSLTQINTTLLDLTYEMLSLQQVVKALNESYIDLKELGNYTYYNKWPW
# experimental_details: Luminex, supernatant

binder	unit_label	MFI
mAb10938 (antibody, V domains shown) VH: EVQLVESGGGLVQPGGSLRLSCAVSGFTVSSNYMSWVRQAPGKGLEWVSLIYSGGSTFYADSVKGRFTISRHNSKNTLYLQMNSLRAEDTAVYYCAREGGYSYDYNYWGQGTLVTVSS VL: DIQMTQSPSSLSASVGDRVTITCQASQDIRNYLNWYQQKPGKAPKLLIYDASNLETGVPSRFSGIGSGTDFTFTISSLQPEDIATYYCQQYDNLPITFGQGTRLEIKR	MFI	16
mAb10985 (antibody, V domains shown) VH: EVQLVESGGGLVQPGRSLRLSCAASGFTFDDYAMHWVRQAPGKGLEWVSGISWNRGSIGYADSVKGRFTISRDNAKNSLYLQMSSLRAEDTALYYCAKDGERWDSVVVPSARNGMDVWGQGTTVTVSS VL: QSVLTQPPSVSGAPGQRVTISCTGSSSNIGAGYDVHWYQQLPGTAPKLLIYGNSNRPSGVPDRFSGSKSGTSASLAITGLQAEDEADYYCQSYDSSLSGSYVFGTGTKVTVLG	MFI	18
mAb10935 (antibody, V domains shown) VH: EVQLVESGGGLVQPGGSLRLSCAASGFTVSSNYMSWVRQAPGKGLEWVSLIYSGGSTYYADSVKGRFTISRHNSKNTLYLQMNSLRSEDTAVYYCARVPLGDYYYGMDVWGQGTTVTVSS VL: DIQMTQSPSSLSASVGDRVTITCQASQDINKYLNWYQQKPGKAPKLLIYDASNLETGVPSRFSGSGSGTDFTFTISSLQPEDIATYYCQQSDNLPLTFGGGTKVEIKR	MFI	15
mAb10920 (antibody, V domains shown) VH: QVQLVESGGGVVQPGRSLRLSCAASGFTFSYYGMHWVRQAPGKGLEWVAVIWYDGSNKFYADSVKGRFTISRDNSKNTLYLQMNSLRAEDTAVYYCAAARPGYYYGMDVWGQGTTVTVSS VL: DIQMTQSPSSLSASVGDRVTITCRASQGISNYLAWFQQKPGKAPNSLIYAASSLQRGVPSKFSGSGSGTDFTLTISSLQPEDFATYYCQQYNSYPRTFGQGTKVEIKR	MFI	24
mAb10921 (antibody, V domains shown) VH: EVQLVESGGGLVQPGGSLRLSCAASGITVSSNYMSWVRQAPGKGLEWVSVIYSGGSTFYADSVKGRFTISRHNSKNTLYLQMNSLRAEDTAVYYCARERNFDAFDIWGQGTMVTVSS VL: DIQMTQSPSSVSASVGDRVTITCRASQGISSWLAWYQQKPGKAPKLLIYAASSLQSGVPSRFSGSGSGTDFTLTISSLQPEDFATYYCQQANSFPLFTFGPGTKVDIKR	MFI	19
mAb10914 (antibody, V domains shown) VH: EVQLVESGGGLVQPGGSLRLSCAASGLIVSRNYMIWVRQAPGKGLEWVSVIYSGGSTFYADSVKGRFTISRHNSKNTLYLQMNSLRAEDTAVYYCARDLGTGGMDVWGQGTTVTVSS VL: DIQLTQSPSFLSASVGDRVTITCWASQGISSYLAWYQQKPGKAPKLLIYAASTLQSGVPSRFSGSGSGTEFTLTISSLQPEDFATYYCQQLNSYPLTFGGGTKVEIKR	MFI	19
mAb10984 (antibody, V domains shown) VH: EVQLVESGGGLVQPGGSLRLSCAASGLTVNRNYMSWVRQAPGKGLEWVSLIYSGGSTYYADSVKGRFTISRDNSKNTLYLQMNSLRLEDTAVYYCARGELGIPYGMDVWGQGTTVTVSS VL: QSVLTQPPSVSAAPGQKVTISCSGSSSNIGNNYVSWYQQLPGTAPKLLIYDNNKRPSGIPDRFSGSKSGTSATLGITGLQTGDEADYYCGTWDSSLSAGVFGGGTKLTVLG	MFI	21
mAb10913 (antibody, V domains shown) VH: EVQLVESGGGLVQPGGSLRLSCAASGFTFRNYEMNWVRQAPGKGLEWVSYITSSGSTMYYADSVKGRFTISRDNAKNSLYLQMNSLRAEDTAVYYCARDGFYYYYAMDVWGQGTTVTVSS VL: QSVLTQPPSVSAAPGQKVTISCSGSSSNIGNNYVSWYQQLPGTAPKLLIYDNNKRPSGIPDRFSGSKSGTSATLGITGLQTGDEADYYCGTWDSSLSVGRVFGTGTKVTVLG	MFI	20
mAb10986 (antibody, V domains shown) VH: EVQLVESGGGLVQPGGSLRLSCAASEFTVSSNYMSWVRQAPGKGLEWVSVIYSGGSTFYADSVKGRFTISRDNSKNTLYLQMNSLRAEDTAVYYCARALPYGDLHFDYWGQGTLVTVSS VL: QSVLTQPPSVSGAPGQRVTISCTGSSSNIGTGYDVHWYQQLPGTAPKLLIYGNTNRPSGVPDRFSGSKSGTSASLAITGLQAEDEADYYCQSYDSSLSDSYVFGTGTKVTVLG	MFI	15
